The reported numbers originate from PubChem BioAssay.

The entries below are paired with their reported composite z-score.
# System: Sonic hedgehog protein (Shh)
# experimental_details: Sonic hedgehog microarray binding compounds – biochemical, small-molecule microarray, 635/667 nm fluorescence, primary screen (AID 1151);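 note: Shh protein binding to compounds spotted on small-molecule microarray slides; score combines spot fluorescence intensity with signal-to-noise across triplicate slides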
# run_parameters: 635 nm fluorescence, higher = more signal

# structure_smiles_string, composite z-score
data = [
    ("COC(=O)C(CC#Cc1ccc2c(c1)[C@]1(C(=O)N2)[C@H](c2ccc(O)cc2)N2[C@H](c3ccccc3)[C@H](c3ccccc3)OC(=O)[C@H]2[C@@H]1C(=O)O)C(=O)OC", 0.262),
    ("CCCCCCC#C[Si](O[C@H](c1ccccc1)c1cn(Cc2cccc(Cl)c2)nn1)(C(C)C)C(C)C", 0.179),
    ("[N-]=[N+]=NCc1ccccc1[C@H]1OC(c2ccc(OCCCO)cc2)=N[C@@]1(Cc1ccccc1N=[N+]=[N-])C(=O)NCCN1CCOCC1", 0.271),
]

---

The entries below are paired with their reported z-score.
# experimental_details: viability profiling in RPMI8226 myeloma cells – cell-based, resazurin fluorescence, basal, 24 h, PK04 Diversity Set, profiling panel (AID 1180);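 note: RPMI8826 multiple myeloma cell line at 5000 cells per well; test concentration not given here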
# run_parameters: higher = more signal

# compound, z-score
measured = [
    ("COc1ccc(C(=O)Nc2ccc(CN3C(=O)[C@@]4(O[C@@H](CC(=O)N5Cc6ccccc6C[C@H]5CO)[C@H]([Si](C)(C)c5ccc(OC)cc5)[C@H]4C)c4ccccc43)cc2)cc1", -1.04),
    ("COc1cccc(C)c1NC(=O)O[C@H]1[C@H](OC(=O)Nc2ccccc2)[C@H](OC(=O)Nc2ccccc2)[C@@H](OC)O[C@@H]1CO", -1.65),
    ("C[C@]12C(=O)N(CCCCCO)[C@@H]3C(=O)N(c4ccc(Cl)cc4)CC=CC31O[C@@H]1/C=C\\CCCOC(=O)C12 (some centres undefined)", -0.135),
    ("COC(=O)C(CC#Cc1ccc2c(c1)[C@]1(C(=O)N2)[C@H](c2ccc(O)cc2)N2[C@H](c3ccccc3)[C@H](c3ccccc3)OC(=O)[C@H]2[C@@H]1C(=O)O)C(=O)OC", -0.0316),
    ("C=CC[C@]1(C(=O)NCC(O)CO)N=C(c2ccc(OCCCO)cc2)O[C@H]1c1ccccc1N=[N+]=[N-] (some centres undefined)", 0.245),
    ("C=CC[C@]1(C(=O)N(C)C)N=C(c2ccc(OCCCO)cc2)O[C@H]1c1ccccc1", 0.586),
    ("COc1ccc(C(=O)Nc2ccc3c(c2)[C@]2(O[C@@H](CCO)[C@H]([Si](C)(C)c4ccc(OC)cc4)[C@H]2C)C(=O)N3Cc2ccccc2)cc1", -2.51),
    ("C=C(COC)/C(=C/C[C@@H](OC(=O)c1ccncc1)c1cccc(OCCO)c1)c1cc(C(=O)OC)ccc1OC", 0.0987),
    ("CCOC(=O)C[C@H]1[C@H](OC(=O)Cc2ccc3c(c2)OCO3)[C@@H](NC(=O)c2ccccc2)c2cc(OCCCO)ccc2N1C(=O)c1ccc2ccccc2n1", 0.121),
    ("NC(=O)NCC#Cc1ccc2c(c1)[C@]1(C(=O)N2)[C@H](c2ccc(O)cc2)N2[C@H](c3ccccc3)[C@H](c3ccccc3)OC(=O)[C@H]2[C@@H]1C(N)=O", -0.11),
    ("CCOC(=O)C1=CC[C@@H](c2cccc(Br)c2)N(S(=O)(=O)c2ccc(C)cc2)[C@H]1c1ccc([N+](=O)[O-])cc1", -1.14),
    ("CCOC(=O)C[C@H]1[C@H](OC(=O)c2ccccc2-c2ccccc2)[C@@H](NC(=O)c2ccccc2)c2cc(OCCCO)ccc2N1C(=O)Cc1ccc(OC)cc1", -0.37),
    ("[N-]=[N+]=Nc1ccccc1[C@@H]1OC(c2ccc(OCCCO)cc2)=N[C@]1(CCS(=O)(=O)c1ccccc1)C(=O)NCc1ccccc1", -0.893),
    ("N#Cc1ccc(NN2C(C(O)c3ccco3)C=CC3C(=O)N(c4ccccc4)C(=O)C32)cc1 (centres undefined)", -0.607),
]
